- measurement-target: T1, CTLA4-Fc fusion protein (human, biotinylated where used as CTLA4-Fc-Biotin (Examples 5.1-5.3))
- T1 construct: expressed in HEK293 cells; also called human CTLA4-Fc protein; CTLA4-Fc antigen protein
- T1 sequence (chain, as listed by the source limits assumed): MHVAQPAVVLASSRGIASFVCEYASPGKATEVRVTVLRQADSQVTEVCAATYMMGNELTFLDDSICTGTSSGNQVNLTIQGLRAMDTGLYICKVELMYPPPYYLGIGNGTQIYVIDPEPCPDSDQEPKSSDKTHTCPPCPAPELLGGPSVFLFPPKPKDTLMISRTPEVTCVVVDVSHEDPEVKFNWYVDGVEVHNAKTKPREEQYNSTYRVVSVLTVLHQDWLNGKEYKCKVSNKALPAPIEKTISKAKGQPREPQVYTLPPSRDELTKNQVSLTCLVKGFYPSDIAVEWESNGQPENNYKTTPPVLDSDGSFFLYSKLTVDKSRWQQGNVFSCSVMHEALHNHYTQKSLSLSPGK
- assay-overview: ELISA OD ratio, value equals OD(CTLA4)/OD(blank)
- Procedure: Plates were coated with CTLA4-Fc fusion protein overnight at 4° C. and 10 ng of the heavy chain single-domain antibody obtained in Example 2.1 (the control was a single domain antibody not binding to the CTLA4-Fc protein) was added to each well and allowed to react for 1 hour at room temperature. […] After washing, chromogenic agent was added and the absorbance was read at 405 nm.
quantity-kind: ODa/ODb
Answers are plain numbers.

So what's the measured ODa/ODb for this one? CTLA4 heavy chain single domain antibody No. 155 (VHH, Camel VHH expressed in E. coli (PET32b), nickel-purified) VHH: QVQLQESGGGPVQAGGSLRLSCAVSKYPYSGSCMGWFRQAPGKEREGVAAMFTGTGSTYYADSVKGRFTISQNVAKNTLDLQMNSLKPEDTAMYYCAVDLLPRSTRCLDYGLRTYNYWGQGTQVTVSS
61.6

So what's the measured ODa/ODb for this one? CTLA4 heavy chain single domain antibody No. 128 (VHH, Camel VHH expressed in E. coli (PET32b), nickel-purified) VHH: QVQLQESGGGSVQAGGSLKLSCAASGYTDYTYNTSCMGWFRQTPGKERERVATVNKVGSTIYADSVKGRFTISKDNVKNTLYLQMNSLKPEDTAMYYCAARGSWSCSQFWGDFGYWGQGTQVTVSS
45.3

So what's the measured ODa/ODb for this one? CTLA4 heavy chain single domain antibody No. J35 (VHH, Camel VHH expressed in E. coli (PET32b), nickel-purified) VHH: QVQLQESGGGSVQAGGSLRLSCAASGYTSGYYVMGWYRQAPGKLREFVSSIDSNGGTMYADSVKGRFTISQDNAKNTAHLQMNSLKPEDTAMYYCKRDSPGNFYWGQGTQVTVSS
29.4

Please find the next binder below.
So what's the measured ODa/ODb for this one? CTLA4 heavy chain single domain antibody No. 138 (VHH, Camel VHH expressed in E. coli (PET32b), nickel-purified) VHH: QVQLQESGGGSVQAGGSLTLSCAASGYANSNTCMGWFRQAPGKERERVAAISGVGTGTYYADSVKGRFTISRDNGKNTLFLQMNSLKPEDTAMYYCAAAPEGRAWCSRDPSGYNYWGQGTQVTVSS
65.8
